Some compounds, each annotated with its measured melting point.

Look over these answered cases.
Compound | melting point
CCOP(=O)(CC(Nc1cccnc1)c1cc(O)c(C)c(OC)c1)OCC (stereo not drawn) | 146 to 147 °C
CCOP(=O)(CC(Nc1cccnc1)c1cc(OC)c(O)c(OC)c1)OCC (stereo not drawn) | 164 to 166 °C
COc1cc(C(CP(=O)(OC(C)C)OC(C)C)Nc2cccnc2)cc(OC)c1O (stereo not drawn) | 138 to 140 °C

Exam item: If you can, please state the reported melting point value of CCOP(=O)(CC(Nc1cccnc1)c1cc(OC)c(OC)c(OC)c1)OCC (stereo not drawn) .
Marked response: 104 to 106 °C

Exam item: If you can, please state the reported melting point value of CCOc1cc(C(CP(=O)(OCC)OCC)Nc2cccnc2)cc(C)c1O (stereo not drawn) .
Marked response: 162 to 164 °C

Exam item: If you can, please state the reported melting point value of COc1cc(C(CP(=O)(OC(C)C)OC(C)C)Nc2cccnc2)cc(OC)c1OC (stereo not drawn) .
Marked response: 96 to 98 °C

* * *

Some compounds, each annotated with its measured melting point.

Compound | melting point
CCOP(=O)(CC(Nc1cccnc1)c1cc(C)c(O)c(OC)c1)OCC (centres unmarked) [Compound 9] | 156 to 158 °C

Exam item: If you can, please state the reported melting point value of CCOc1cc(C(CP(=O)(OC(C)C)OC(C)C)Nc2cccnc2)cc(C)c1O (centres unmarked) [Compound 21] .
Marked response: 148 to 150 °C

Exam item: If you can, please state the reported melting point value of COc1cc(C(CP(=O)(OC(C)C)OC(C)C)Nc2cccnc2)cc(C)c1O (centres unmarked) [Compound 10] .
Marked response: 135 to 137 °C

Exam item: If you can, please state the reported melting point value of Cc1cc(C(CP(=O)(OC(C)C)OC(C)C)Nc2cccnc2)cc(C)c1O (centres unmarked) [Compound 17] .
Marked response: 104 to 105 °C

Exam item: If you can, please state the reported melting point value of CCOP(=O)(CC(Nc1cccnc1)c1cc(C)c(O)c(C)c1)OCC (centres unmarked) [Compound 16] .
Marked response: 98 to 101 °C
